Tested on: U251 CNS
Assay: NCI tumour cell line growth inhibition, 48 h

MOLECULE	UNIT_STRING	PREFIX_OPERATOR	TGI
CCOC(=O)Cc1csc(Nc2ccc(OCC)cc2)n1	µM	>	100
O=C1C=CC(=O)c2c1ccc1c3ccccc3n(-c3ccccc3)c21	µM	=	43.7
CC(=O)Oc1ccc2cc(Oc3ccc(Cl)c(Cl)c3)c(=O)oc2c1	µM	=	41.5
S=C(NCCNC(=S)[S][Sn]([c]1ccccc1)([c]1ccccc1)[c]1ccccc1)[S][Sn]([c]1ccccc1)([c]1ccccc1)[c]1ccccc1	µM	=	0.064
N#Cc1ccc(CSC2=C(c3ccc(Cl)cc3)S/C(=C3\SC(SCc4ccc(C#N)cc4)=C(c4ccc(Cl)cc4)S3)S2)cc1	µM	>	100
C[C@]12CC[C@@H]3c4cc(O)c(O)cc4CC[C@H]3[C@@H]1CC[C@@H]2O	µM	=	35.1
CCCCCCCCCCCC(=O)N1CCN(C(C)=O)CC1	µM	>	100
O=C1/C(=C/c2ccco2)N=C2Sc3c(nc[nH]c3=O)N12	µM	>	100
Cc1ccc(N=NC(=Nc2ccc(Cl)cc2)c2ccc(N(CCC#N)CCC#N)cc2)cc1	µM	=	59.5
C=C1C(=O)O[C@H]2[C@H]1CC/C(C=Nc1c(N)cc(C(F)(F)F)cc1C(F)(F)F)=C\CC[C@@]1(C)O[C@@H]21	µM	=	2.98
O=[N+]([O-])c1ccc(C2=Nn3c(nnc3-c3ccc(Cl)cc3)SC2)o1	µM	=	31.5
O=C(NC(=O)c1ccccc1[N+](=O)[O-])Nc1ccc(Oc2ncc(Cl)cn2)c([N+](=O)[O-])c1	µM	>	88.6
Cc1c2c(OCC(O)CN3CCN(c4ccccc4)CC3)nn(C)c(=O)c2c(C)n1-c1ccccc1 (stereo not drawn)	µM	=	30.2
O=C1NC(=O)C(C(=O)C(=O)Nc2ccc(Cl)cc2Cl)C(=O)N1	µM	>	100
COC(=O)C1=CO[C@@H](OC2OC(CO)C(O)C(O)C2O)[C@H]2[C@@H](C)[C@@H](O)[C@@H](O)[C@@H]12 (stereo partly drawn)	µM	>	100
OCCCNc1ccnc2cc(Cl)ccc12	µM	>	100
Clc1ccc(CCn2cncn2)cc1	µM	>	100
Cc1cc(Nc2ncc3c(n2)N(C)C(=O)N(c2cc(NC(=O)c4cccc(C(F)(F)F)c4)ccc2C)C3)n(C)n1	µM	>	31.6
N#Cc1cc([N+](=O)[O-])ccc1NC(=O)/C(=N\NC(=O)c1ccncc1)C(c1cnc2ccc([N+](=O)[O-])cc2n1)[N+](=O)[O-] (stereo not drawn)	µM	=	6.63
Nc1ccc(Oc2ccc(C3(c4ccc(Oc5ccc(N)cc5)cc4)C4CC5CC(C4)CC3C5)cc2)cc1	µM	=	21.5
COc1ccc(Nc2cc(C)nc(NCc3ccccc3)n2)cc1	µM	=	14.3
CCOC(=O)c1cc(C(=O)c2cc(OC)c(OC)c(OC)c2)n2c1ccc1ccccc12	µM	>	100
Cn1ncc2c(Nc3cccc(Cl)c3)nc(Nc3cccc(Cl)c3)nc21	µM	=	52.1
COc1ccc(C2=C(N)c3c(Cl)cccc3C2=O)cc1	µM	>	100
CN(C)CCCNC(=O)CCNC(=O)c1cc(NC(=O)c2cc(NC(=O)c3cc(NC(=O)c4nccn4C)cn3C)cn2C)cn1C	µM	>	100
C#C/C=C\CCCCCCCCCCCCCC/C=C\CCCCC#CC(O)C#CCCCC/C=C\CCCCCC/C=C/C(O)C#C (stereo not drawn)	µM	>	75
COc1cccc(/C=N/NC(=O)c2ccccc2N2CCCC2)c1O	µM	>	100
O=C(OC1CCC2OOC1O2)c1ccc([N+](=O)[O-])cc1 (stereo not drawn)	µM	>	100

Where do these numbers come from? They come from PubChem BioAssay (NCI).
